- Tested on: UT-SCC-81
- Test description: maximal % inhibition of viability relative to DMSO; higher = stronger effect
- Condition parameters: culture condition: embedded in Myogel + collagen I; treatment time: 3 days
Measure: maximal % inhibition of viability (%)
Number only, in %; omit the unit.

Answered examples (2):
chem_smiles=C#Cc1cccc(Nc2ncnc3cc(OCCOC)c(OCCOC)cc23)c1 measure="maximal % inhibition of viability" reading_unit=% recorded_measurement=6.5
chem_smiles=CO[C@H]1C[C@@H]2CC[C@@H](C)[C@@](O)(O2)C(=O)C(=O)N2CCCC[C@H]2C(=O)O[C@H]([C@H](C)C[C@@H]2CC[C@@H](O)[C@H](OC)C2)CC(=O)[C@H](C)/C=C(\C)[C@@H](O)[C@@H](OC)C(=O)[C@H](C)C[C@H](C)/C=C/C=C/C=C/1C measure="maximal % inhibition of viability" reading_unit=% recorded_measurement=80

Moving on to the next compound.
[ask] maximal % inhibition of viability for `O=C(NC[C@H](O)CO)c1ccncc1Nc1ccc(I)cc1F` ?
[reply] 68.2

---

- Test system: UT-SCC-14
- Test description: drug sensitivity score (DSS); higher = more sensitive; extreme values may be limits of the assay
- Condition parameters: culture condition: embedded in Myogel + collagen I; treatment time: 3 days
Assign true to entries whose drug sensitivity score meets or exceeds 9 DSS; assign false to the rest.

Record excerpt, results attached:
molecule="Cn1cnc2c(F)c(Nc3ccc(Br)cc3F)c(C(=O)NOCCO)cc21 [Binimetinib]" assay_target=UT-SCC-14 group=false
molecule="CO[C@H]1C[C@@H]2CC[C@@H](C)[C@@](O)(O2)C(=O)C(=O)N2CCCC[C@H]2C(=O)O[C@H]([C@H](C)C[C@@H]2CC[C@@H](OP(C)(C)=O)[C@H](OC)C2)CC(=O)[C@H](C)/C=C(\\C)[C@@H](O)[C@@H](OC)C(=O)[C@H](C)C[C@H](C)/C=C/C=C/C=C/1C [Ridaforolimus]" assay_target=UT-SCC-14 group=true
molecule="Cn1c(=O)n(-c2ccc(C(C)(C)C#N)cc2)c2c3cc(-c4cnc5ccccc5c4)ccc3ncc21 [Dactolisib]" assay_target=UT-SCC-14 group=false
molecule="C#Cc1cccc(Nc2ncnc3cc(OCCOC)c(OCCOC)cc23)c1 [Erlotinib]" assay_target=UT-SCC-14 group=false
molecule="CO[C@H]1C[C@@H]2CC[C@@H](C)[C@@](O)(O2)C(=O)C(=O)N2CCCC[C@H]2C(=O)O[C@H]([C@H](C)C[C@@H]2CC[C@@H](O)[C@H](OC)C2)CC(=O)[C@H](C)/C=C(\\C)[C@@H](O)[C@@H](OC)C(=O)[C@H](C)C[C@H](C)/C=C/C=C/C=C/1C [Sirolimus]" assay_target=UT-SCC-14 group=true

[ask] Identify whether the reported drug sensitivity score of the following molecule is 9 DSS or greater: CO[C@H]1C[C@@H]2CC[C@@H](C)[C@@](O)(O2)C(=O)C(=O)N2CCCC[C@H]2C(=O)O[C@H]([C@H](C)C[C@@H]2CC[C@@H](OCCO)[C@H](OC)C2)CC(=O)[C@H](C)/C=C(\C)[C@@H](O)[C@@H](OC)C(=O)[C@H](C)C[C@H](C)/C=C/C=C/C=C/1C [Everolimus]
[reply] true

[ask] Identify whether the reported drug sensitivity score of the following molecule is 9 DSS or greater: `COc1ccc(-c2cc3c(C)nc(N)nc3n([C@H]3CC[C@H](OCCO)CC3)c2=O)cn1`
[reply] false

[ask] Identify whether the reported drug sensitivity score of the following molecule is 9 DSS or greater: CO[C@H]1C[C@@H]2CC[C@@H](C)[C@@](O)(O2)C(=O)C(=O)N2CCCC[C@H]2C(=O)O[C@H]([C@H](C)C[C@@H]2CC[C@@H](OC(=O)C(C)(CO)CO)[C@H](OC)C2)CC(=O)[C@H](C)/C=C(\C)[C@@H](O)[C@@H](OC)C(=O)[C@H](C)C[C@H](C)/C=C/C=C/C=C/1C [Temsirolimus]
[reply] true

[ask] Identify whether the reported drug sensitivity score of the following molecule is 9 DSS or greater: CC(=O)Nc1cccc(-n2c(=O)n(C3CC3)c(=O)c3c(Nc4ccc(I)cc4F)n(C)c(=O)c(C)c32)c1 [Trametinib]
[reply] false

[ask] Identify whether the reported drug sensitivity score of the following molecule is 9 DSS or greater: COc1cc(F)c(F)c(Nc2ccc(I)cc2F)c1NS(=O)(=O)C1(C[C@H](O)CO)CC1 [Refametinib]
[reply] true

---

- Tested on: UT-SCC-8
- Test description: relative IC50 (midpoint of the fitted curve; maximal inhibition may be below 50%); higher = less potent
- Condition parameters: culture condition: embedded in Myogel + collagen I; treatment time: 3 days
Assign Satisfied to entries whose relative IC50 meets or exceeds 800 nM; assign Not satisfied to the rest.

Record excerpt, results attached:
molecule="CO[C@H]1C[C@@H]2CC[C@@H](C)[C@@](O)(O2)C(=O)C(=O)N2CCCC[C@H]2C(=O)O[C@H]([C@H](C)C[C@@H]2CC[C@@H](OP(C)(C)=O)[C@H](OC)C2)CC(=O)[C@H](C)/C=C(\\C)[C@@H](O)[C@@H](OC)C(=O)[C@H](C)C[C@H](C)/C=C/C=C/C=C/1C [Ridaforolimus]" group="Not satisfied"
molecule="C=CC(=O)Nc1cc2c(Nc3ccc(F)c(Cl)c3)ncnc2cc1OCCCN1CCOCC1 [Canertinib]" group=Satisfied
molecule="Cc1c(CN2CCN(C(=O)[C@H](C)O)CC2)sc2c(N3CCOCC3)nc(-c3cnc(N)nc3)nc12 [Apitolisib]" group=Satisfied
molecule="C#Cc1cccc(Nc2ncnc3cc(OCCOC)c(OCCOC)cc23)c1 [Erlotinib]" group=Satisfied
molecule="O=C(NC[C@H](O)CO)c1ccncc1Nc1ccc(I)cc1F [Pimasertib]" group="Not satisfied"

[ask] Identify whether the reported relative IC50 of the following molecule is 800 nM or greater: COc1cc(F)c(F)c(Nc2ccc(I)cc2F)c1NS(=O)(=O)C1(C[C@H](O)CO)CC1 [Refametinib]
[reply] Satisfied

---

- System: UT-SCC-42B
- Test description: maximal % inhibition of viability relative to DMSO; higher = stronger effect
- Condition parameters: culture condition: embedded in Matrigel; treatment time: 3 days
Measure: maximal % inhibition of viability (%)
Number only, in %; omit the unit.

Answered examples (2):
chem_smiles=CO[C@H]1C[C@@H]2CC[C@@H](C)[C@@](O)(O2)C(=O)C(=O)N2CCCC[C@H]2C(=O)O[C@H]([C@H](C)C[C@@H]2CC[C@@H](OCCO)[C@H](OC)C2)CC(=O)[C@H](C)/C=C(\C)[C@@H](O)[C@@H](OC)C(=O)[C@H](C)C[C@H](C)/C=C/C=C/C=C/1C measure="maximal % inhibition of viability" recorded_measurement=14.8
chem_smiles=CN(C)C/C=C/C(=O)Nc1cc2c(Nc3ccc(F)c(Cl)c3)ncnc2cc1O[C@H]1CCOC1 measure="maximal % inhibition of viability" recorded_measurement=73.7

[ask] maximal % inhibition of viability for `COc1ncc(-c2ccc3nccc(-c4ccnnc4)c3c2)cc1NS(=O)(=O)c1ccc(F)cc1F` ?
[reply] 96.3

---

- System: UT-SCC-40
- Test description: maximal % inhibition of viability relative to DMSO; higher = stronger effect
- Condition parameters: culture condition: plastic 2D (no matrix); treatment time: 3 days
# maximal % inhibition of viability annotations
Number only, in %; omit the unit.

Answered examples (3):
chem_smiles=Cn1cnc2c(F)c(Nc3ccc(Br)cc3F)c(C(=O)NOCCO)cc21 measure="maximal % inhibition of viability" recorded_measurement=52.8
chem_smiles=Cc1c(CN2CCN(C(=O)[C@H](C)O)CC2)sc2c(N3CCOCC3)nc(-c3cnc(N)nc3)nc12 measure="maximal % inhibition of viability" recorded_measurement=74.7
chem_smiles=COc1ncc(-c2ccc3nccc(-c4ccnnc4)c3c2)cc1NS(=O)(=O)c1ccc(F)cc1F measure="maximal % inhibition of viability" recorded_measurement=88.4

[ask] maximal % inhibition of viability for `C#Cc1cccc(Nc2ncnc3cc(OCCOC)c(OCCOC)cc23)c1` ?
[reply] 9.97

[ask] maximal % inhibition of viability for `Cn1c(=O)c(F)c(Nc2ccc(I)cc2F)c2c(=O)n(C[C@@H](O)CO)cnc21` ?
[reply] 53.7

[ask] maximal % inhibition of viability for `COc1cc(F)c(F)c(Nc2ccc(I)cc2F)c1NS(=O)(=O)C1(C[C@H](O)CO)CC1` ?
[reply] 63.2

[ask] maximal % inhibition of viability for `COc1ccc(-c2cc3c(C)nc(N)nc3n([C@H]3CC[C@H](OCCO)CC3)c2=O)cn1` ?
[reply] 68

[ask] maximal % inhibition of viability for `Cn1c(=O)n(-c2ccc(C(C)(C)C#N)cc2)c2c3cc(-c4cnc5ccccc5c4)ccc3ncc21` ?
[reply] 2.4

[ask] maximal % inhibition of viability for `CO[C@H]1C[C@@H]2CC[C@@H](C)[C@@](O)(O2)C(=O)C(=O)N2CCCC[C@H]2C(=O)O[C@H]([C@H](C)C[C@@H]2CC[C@@H](OC(=O)C(C)(CO)CO)[C@H](OC)C2)CC(=O)[C@H](C)/C=C(\C)[C@@H](O)[C@@H](OC)C(=O)[C@H](C)C[C@H](C)/C=C/C=C/C=C/1C` ?
[reply] 22.1

[ask] maximal % inhibition of viability for `O=C(NC[C@H](O)CO)c1ccncc1Nc1ccc(I)cc1F` ?
[reply] 64.5

[ask] maximal % inhibition of viability for `CO[C@H]1C[C@@H]2CC[C@@H](C)[C@@](O)(O2)C(=O)C(=O)N2CCCC[C@H]2C(=O)O[C@H]([C@H](C)C[C@@H]2CC[C@@H](O)[C@H](OC)C2)CC(=O)[C@H](C)/C=C(\C)[C@@H](O)[C@@H](OC)C(=O)[C@H](C)C[C@H](C)/C=C/C=C/C=C/1C` ?
[reply] 79.1

[ask] maximal % inhibition of viability for `C=CC(=O)Nc1cc2c(Nc3ccc(F)c(Cl)c3)ncnc2cc1OCCCN1CCOCC1` ?
[reply] 99.7

[ask] maximal % inhibition of viability for `Cn1cnc2c(F)c(Nc3ccc(Br)cc3Cl)c(C(=O)NOCCO)cc21` ?
[reply] 56.2

[ask] maximal % inhibition of viability for `CN(C)C/C=C/C(=O)Nc1cc2c(Nc3ccc(F)c(Cl)c3)ncnc2cc1O[C@H]1CCOC1` ?
[reply] 59.8

[ask] maximal % inhibition of viability for `CO[C@H]1C[C@@H]2CC[C@@H](C)[C@@](O)(O2)C(=O)C(=O)N2CCCC[C@H]2C(=O)O[C@H]([C@H](C)C[C@@H]2CC[C@@H](OCCO)[C@H](OC)C2)CC(=O)[C@H](C)/C=C(\C)[C@@H](O)[C@@H](OC)C(=O)[C@H](C)C[C@H](C)/C=C/C=C/C=C/1C` ?
[reply] 21.6

[ask] maximal % inhibition of viability for `CO[C@H]1C[C@@H]2CC[C@@H](C)[C@@](O)(O2)C(=O)C(=O)N2CCCC[C@H]2C(=O)O[C@H]([C@H](C)C[C@@H]2CC[C@@H](OP(C)(C)=O)[C@H](OC)C2)CC(=O)[C@H](C)/C=C(\C)[C@@H](O)[C@@H](OC)C(=O)[C@H](C)C[C@H](C)/C=C/C=C/C=C/1C` ?
[reply] 22.4

[ask] maximal % inhibition of viability for `CC(=O)Nc1cccc(-n2c(=O)n(C3CC3)c(=O)c3c(Nc4ccc(I)cc4F)n(C)c(=O)c(C)c32)c1` ?
[reply] 52.2

Source listed as the supplement of paper PMC7017272.
